The measurements presented in this section are drawn from ChEMBL document CHEMBL3102799.

Answer each item with its documented K.
test system: Escherichia coli; test: Inhibition of hydrolytic activity of Escherichia coli GGT using 7-(N-gamma-glutamylamino)-4-methylcoumarin as substrate assessed as release of AMC after 10 mins by fluorescence assay
Please respond with the number in M⁻¹ s⁻¹ and leave the unit unwritten.

Ask: Which K value belongs to CCCC[C@H](O[P@@](=O)(CCC(N)C(=O)O)Oc1ccccc1)C(=O)OC (mixture of isomers) ?
Result: 8.83

Ask: Next compound: NC(CC[P@@](=O)(Oc1ccccc1)O[C@@H](CI)C(=O)NCC(=O)O)C(=O)O (mixture of isomers)
Result: 98.4

Ask: Next compound: CCC(OP(=O)(CCC(N)C(=O)O)Oc1ccccc1)C(=O)NCC(=O)O (mixture of isomers)
Result: 80

Ask: Next compound: CC[C@H](O[P@@](=O)(CCC(N)C(=O)O)Oc1ccccc1)C(=O)NCC(=O)O (mixture of isomers)
Result: 109

Ask: Next compound: CCCC[C@@H](O[P@](=O)(CCC(N)C(=O)O)Oc1ccccc1)C(=O)NCC(=O)O (mixture of isomers)
Result: 1.3

Ask: Next compound: NC(CC[P@@](=O)(Oc1ccccc1)O[C@@H](CCl)C(=O)NCC(=O)O)C(=O)O (mixture of isomers)
Result: 188

Ask: Next compound: CCCC[C@H](O[P@](=O)(CCC(N)C(=O)O)Oc1ccccc1)C(=O)NCC(=O)O (stereo partly specified)
Result: 1.7

Ask: Next compound: NC(CC[P@@](=O)(Oc1ccccc1)O[C@@H](Cc1ccccc1)C(=O)NCC(=O)O)C(=O)O (mixture of isomers)
Result: 389

Ask: Next compound: NC(CCP(=O)(OCC(=O)NCC(=O)O)Oc1ccccc1)C(=O)O (mixture of isomers)
Result: 80.6

Ask: Next compound: N[C@H](C(=O)O)[C@@H]1CC(Cl)=NO1
Result: 4200

Ask: Next compound: CCCC[C@H](O[P@@](=O)(CCC(N)C(=O)O)Oc1ccccc1)C(=O)NCC(=O)O (mixture of isomers)
Result: 50.7

----------
target: Glutathione hydrolase 1 proenzyme (Homo sapiens); test: Inhibition of hydrolytic activity of human GGT using 7-(N-gamma-glutamylamino)-4-methylcoumarin as substrate assessed as release of AMC after 10 mins by fluorescence assay
Answer each item with its documented K.
Please respond with the number in M⁻¹ s⁻¹ and leave the unit unwritten.

Ask: Which K value belongs to CCC(OP(=O)(CCC(N)C(=O)O)Oc1ccccc1)C(=O)NCC(=O)O (mixture of isomers) ?
Result: 75

Ask: Next compound: NC(CCP(=O)(OCC(=O)NCC(=O)O)Oc1ccccc1)C(=O)O (mixture of isomers)
Result: 44.5

Ask: Next compound: CC[C@H](O[P@@](=O)(CCC(N)C(=O)O)Oc1ccccc1)C(=O)NCC(=O)O (mixture of isomers)
Result: 145

Ask: Next compound: CCCC[C@H](O[P@@](=O)(CCC(N)C(=O)O)Oc1ccccc1)C(=O)NCC(=O)O (mixture of isomers)
Result: 63.2

Ask: Next compound: N[C@H](C(=O)O)[C@@H]1CC(Cl)=NO1
Result: 0.4

Ask: Next compound: N[C@@H](CCP(=O)(CCC(=O)NCC(=O)O)Oc1ccccc1)C(=O)O (mixture of isomers)
Result: 1.35

Ask: Next compound: NC(CC[P@@](=O)(Oc1ccccc1)O[C@@H](CI)C(=O)NCC(=O)O)C(=O)O (mixture of isomers)
Result: 43.6

Ask: Next compound: NC(CC[P@@](=O)(Oc1ccccc1)O[C@@H](CCl)C(=O)NCC(=O)O)C(=O)O (mixture of isomers)
Result: 40.3

Ask: Next compound: NC(CC[P@@](=O)(Oc1ccccc1)O[C@@H](Cc1ccccc1)C(=O)NCC(=O)O)C(=O)O (mixture of isomers)
Result: 4.44
